This collection of values is drawn from ChEMBL document CHEMBL1128156.

assay-system: Endothelin receptor type B (Homo sapiens, UniProt P24530)
Sequence (P24530 whole entry): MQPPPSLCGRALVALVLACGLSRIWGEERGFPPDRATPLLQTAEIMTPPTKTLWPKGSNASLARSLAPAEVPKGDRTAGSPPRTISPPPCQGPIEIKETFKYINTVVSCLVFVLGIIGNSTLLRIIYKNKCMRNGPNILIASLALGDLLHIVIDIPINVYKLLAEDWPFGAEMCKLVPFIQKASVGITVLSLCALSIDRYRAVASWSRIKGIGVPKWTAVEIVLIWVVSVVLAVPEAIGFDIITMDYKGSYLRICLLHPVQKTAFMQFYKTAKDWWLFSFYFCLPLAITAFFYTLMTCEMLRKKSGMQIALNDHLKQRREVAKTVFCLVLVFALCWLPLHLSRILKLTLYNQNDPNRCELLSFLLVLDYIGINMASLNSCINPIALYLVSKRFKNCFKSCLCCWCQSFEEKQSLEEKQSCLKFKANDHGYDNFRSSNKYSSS
run-description: Inhibition of human endothelin B (ETB) receptor expressed in CHO cells
Doc: threshold 90 nM (exclusive). Items with IC50 beneath it return met; others return not met.

| compound | assay-system | group |
| --- | --- | --- |
| CCCc1cc(Cn2c(CC)nc3c(C)cc(C)nc32)cc(CCC)c1OC(C(=O)NS(=O)(=O)c1ccccc1)c1ccc2c(c1)OCO2 (stereo not given) | Endothelin receptor type B (Homo sapiens, UniProt P24530) | not met |
| CCCc1cc(Cn2c(CC)nc3c(C)cc(C)nc32)cc(CCC)c1OC(C(=O)NS(=O)(=O)c1ccc(C(C)C)cc1)c1ccc2c(c1)OCO2 (stereo not given) | Endothelin receptor type B (Homo sapiens, UniProt P24530) | not met |
| CCCc1cc(Cn2c(CC)nc3c(C)cc(C)nc32)ccc1OC(C(=O)O)c1ccc2c(c1)OCO2 (stereo not given) | Endothelin receptor type B (Homo sapiens, UniProt P24530) | not met |
| CCCc1cc(Cn2c(CC)nc3c(C)cc(C)nc32)ccc1OC(C(=O)NS(=O)(=O)c1ccc(C(C)C)cc1)c1ccc2c(c1)OCO2 (stereo not given) | Endothelin receptor type B (Homo sapiens, UniProt P24530) | met |
